Test system: PC3 cells
Test conditions: 96 h
pIC50: −log10 of the molar value. Where no end group is shown, it is not given here.

Biopolymer sequence	pIC50
WYPAMKKHHRRRRRRRRR [CXR9, WYPAMKKHHRRRRRRRRR]	< 4.10
